System: SiHa cells (cervical cancer)
Assay: In vitro anticancer activity, sulforhodamine B assay
Assay type: cell-based
Details: Homo sapiens, 72 h compound exposure, mean of 3 independent experiments
assay.readout: pIC50
Bear in mind: pIC50 is minus log10 of a mol/L concentration; give just that figure.

Given the entry Cl.O=C(Nc1cc[n+](Cc2ccccc2)cc1)c1ccccn1 [[HL]Cl] , report its measured pIC50.
4.52

---

Each entry below carries its recorded IC50.
Tested on: SiHa cells (cervical cancer)
Assay: In vitro anticancer activity, sulforhodamine B assay
Format: cell-based
Conditions: 72 h compound exposure, mean of 3 independent experiments
Procedure: HCT116 (colon cancer cells) and NCI-H460 (large cell lung carcinoma) cells were supplied by ATCC, while SiHa cells (cervical cancer) were supplied by Dr. David Cowan, Ontario Cancer Institute, Canada. […] The optical density was measured on a BioTek EL808 microplate reader at an absorbance of 490 and 450 nm (reference wavelength) and was used to determine the percentage of cell-growth inhibition. […]
Express the result in µM but write the number alone.

O=C(Nc1cc[n+](Cc2ccccc2)cc1)c1ccccn1.[C-]#[O+].[C-]#[O+].[C-]#[O+].[Cl][Ru-]([Cl])[Cl] [Compound 1, [HL][Ru(CO)3Cl3]] : 26

Now consider the entry below.
Given the entry O=C(N=c1ccn(Cc2ccccc2)cc1)c1ccccn1.[C-]#[O+].[C-]#[O+].[C-]#[O+].[C-]#[O+].[C-]#[O+].[C-]#[O+].[Cl][Ru+].[Cl][Ru-]([Cl])[Cl] [pH-CORM-1, [Ru(CO)3Cl(L)][Ru(CO)3Cl3]] , report its measured IC50.
148
